System: MCF7
METHOD_DESCRIPTION: Growth inhibition of human MCF7 cells by MTT assay
Assay type: functional
EXPERIMENTAL_READOUT: GI50 (µM)
Form entry: value (µM) — number only.

Query C=CCO[C@H]1[C@H]2c3cc4c(cc3CN3CCC(=C[C@@H]1O[Si](C(C)C)(C(C)C)C(C)C)[C@H]23)OCO4 on MCF7; GI50 returned: 5

Query C#CCCCO[C@H]1C=C2CCN3Cc4cc5c(cc4[C@H]([C@@H]1O)[C@@H]23)OCO5 on MCF7; GI50 returned: 21

Query C#CCO[C@H]1[C@H]2c3cc4c(cc3CN3CCC(=C[C@@H]1O[Si](C(C)C)(C(C)C)C(C)C)[C@H]23)OCO4 on MCF7; GI50 returned: 8.3

Query C1=C2CCN3Cc4cc5c(cc4[C@H]([C@H](OC[C@@H]4CO4)[C@H]1OC[C@@H]1CO1)[C@@H]23)OCO5 on MCF7; GI50 returned: 77

The values you see were collected from ChEMBL document CHEMBL3112496.
